# Tested on: EKVX NSCLC
# test_summary: NCI tumour cell line growth inhibition, 48 h
endpoint: TGI

compound	TGI
COc1ccc(-n2c(=O)n(C)c(=O)n2-c2c(C)c(C)c(C)c(C)c2C)cc1	> 100 µM
COc1ccc2c(c1)CC[C@@H]1[C@@H]2CC[C@]2(C)[C@@H](O)/C(=C/c3ccncc3)C[C@@H]12	70.6 µM
COC(=O)CNC(=O)Nc1cc(N2C(=O)ON3C2C(C)(C)N(O)C3(C)C)ccc1C (stereo not given)	> 100 µM
CO[C@]12C[C@H](CNC(=O)c3cc(Br)c(Br)[nH]3)O[C@H]1NC(=O)N2	> 100 µM
C[N+]1=c2c3cccc4cccc(c(=O)n2CCC1)c43	65 µM
Nc1cnc2c(c1)c(=O)nc1n2CCS1	> 100 µM
Cc1cc(=O)[nH]c2c3c(ccc12)OC(C)(C)C=C3	> 63.7 µM
CCOC(=O)C(Cc1cn(S(=O)(=O)c2ccc(C)cc2)cn1)P(=O)(OCC)OCC (stereo not given)	> 100 µM
C1=c2ccccc2=C2C(=C(c3ccccc3)C(c3ccccc3)=NN2c2ccccc2)S1	> 100 µM

From here, focus on the item given below.
Provide the reported TGI (system: EKVX NSCLC) for CCOc1ccc2c(c1)NC(=O)C(C1OC(c3ccccc3)=CC1=O)S2 (stereo not given)
62.3 µM

---

# Tested on: SNB-19 CNS
# test_summary: NCI tumour cell line growth inhibition, 48 h
Listed next: entries and their corresponding TGI.

These solved cases illustrate the format of a correct answer.
compound	TGI
Cc1cc(Br)cc(C)c1NC(=O)C(=O)C1C(=O)C(CC2C(=O)c3ccccc3C2=O)C(=O)CC1(C)C (stereo not given)	> 100 µM
OC1C2C=CCC1CCC2 (stereo not given)	> 100 µM
Cc1cc(C)c(NS(=O)c2cccc([N+](=O)[O-])c2)c(C)c1 (stereo not given)	> 100 µM
Cc1cc(=O)oc2c(CNC(C(=O)O)C(C)O)c(O)ccc12 (stereo not given)	> 100 µM
CC1OC(OC2C(O[C@@H]3C[C@@H]4CC[C@@H]5[C@H](CC[C@]6(C)[C@@H]7[C@H](C[C@@H]56)O[C@]5(CC[C@@H](C)CO5)[C@H]7C)[C@@]4(C)C[C@H]3O)OC(CO)C(OC3OC(CO)C(O)C(O)C3O)C2O)C(O)C(O)C1O (stereo not given in full)	3.66 µM
O=C1c2cccc3cc([N+](=O)[O-])cc(c23)C(=O)N1O	> 100 µM

From here, focus on the item given below.
Look up TGI of `COc1cnc2c(c1)C(=O)c1c-2n(CCCN2CCN(CCO)CC2)c(=O)c2cc([N+](=O)[O-])ccc12` and report it.
12.4 µM

---

Listed next: entries and their corresponding TGI.
# Test system: MDA-MB-231 breast
# test_summary: NCI tumour cell line growth inhibition, 48 h

These solved cases illustrate the format of a correct answer.
molecule	reported_value
CCN(CC)c1ccc2nc3c4ccccc4c(=NC(=O)c4ccccc4-c4c5ccc(N(CC)CC)cc5[o+]c5cc(N(CC)CC)ccc45)cc-3oc2c1	8.91 µM
COc1ccc(Nc2nc3ccccc3nc2C(=O)O)cc1	> 100 µM
COc1ccc(-n2c(=O)n(C)c(=O)n2-c2c(C)c(C)c(C)c(C)c2C)cc1	> 100 µM
CC[C@H](C)[C@H](NC(=O)C12CC(NC(C)=O)(C1)C2)C(=O)N(C)[C@H](C[C@@H](OC(C)=O)c1nc(C(=O)N[C@@H](Cc2ccccc2)C[C@H](C)C(=O)OC)cs1)C(C)C	> 16.7 µM
Cc1ccc(S(=O)(=O)NCCSS(=O)(=O)c2ccc(C)cc2)cc1	> 100 µM
CCNCCNc1cc(-c2cccc(C(F)(F)F)c2)c(C#N)c2nc3ccccc3n12	3.29 µM

Look up TGI of CC1OC(OC2C(O[C@@H]3C[C@@H]4CC[C@@H]5[C@H](CC[C@]6(C)[C@@H]7[C@H](C[C@@H]56)O[C@]5(CC[C@@H](C)CO5)[C@H]7C)[C@@]4(C)C[C@H]3O)OC(CO)C(OC3OC(CO)C(O)C(O)C3O)C2O)C(O)C(O)C1O (stereo partly drawn) and report it.
3.39 µM

Look up TGI of `O=C1/C(=C\c2c(-c3ccccc3)nn(-c3ccccc3)c2O)C(c2ccccc2)=NN1c1ccccc1` and report it.
> 100 µM

---

# System: NCI-H460 lung
Choose one outcome from this list and give only that: active, inactive

# count of solved cases: 5
compound	target_desc	class_label
CCNCCNc1cc(-c2cccc(C(F)(F)F)c2)c(C#N)c2nc3ccccc3n12	NCI-H460 lung	inactive
C[C@@H](Oc1cc(-c2cnn(C3CC4(CCCNC4)C3)c2)cnc1N)c1c(Cl)ccc(F)c1Cl (some centres undefined)	NCI-H460 lung	inactive
CC(=O)N[C@@H](Cc1ccc(OP(=O)(O)O)cc1)C(=O)N[C@H]1CCC(=O)N2CCC[C@@H](C(=O)NCc3ccc(O)cc3)N2C1=O	NCI-H460 lung	inactive
COc1ccc(-c2cncn2-c2cc(OC)c(OC)c(OC)c2)cc1F	NCI-H460 lung	active
CC1(C)CC2CC(C)(CN2c2ncnc3ccc(Br)cc23)C1 (centres undefined)	NCI-H460 lung	inactive

Assay result, entry `CC[O-].CC[O-].O=C([CH-]C(=O)c1ccccc1)c1ccccc1.O=C([CH-]C(=O)c1ccccc1)c1ccccc1.[Ti+4]` — outcome?
inactive

Assay result, entry COc1cc(C2C(C#N)=C(N)Oc3cc4c(cc32)OCO4)cc2c1OCO2 (centres undefined) — outcome?
active

Assay result, entry `Brc1ccc(Br)nn1` — outcome?
inactive

Assay result, entry COc1ccc(C2C3=C(COC3=O)N(CCO)c3cc4c(cc32)OCCO4)cc1OC (centres undefined) — outcome?
inactive

---

# System: K-562 leukemia
# test_summary: NCI tumour cell line growth inhibition, 48 h
endpoint: TGI

compound	target_desc	endpoint	reported_value
CC(=O)O/C=C\OC1CCCC1	K-562 leukemia	TGI	> 100 µM
COC(=O)/C(=N\O)C(C(=O)C=C(C)C)C(=O)C(=O)Nc1ccccc1C (stereo unspecified)	K-562 leukemia	TGI	> 100 µM
O=[N+]([O-])c1cc(/C=N/NS(=O)(=O)c2ccc(F)cc2)c(O)c([N+](=O)[O-])c1	K-562 leukemia	TGI	> 100 µM
Nc1cccc2nsnc12	K-562 leukemia	TGI	> 85.4 µM
Cc1sc(/N=C2/NC(=O)CS2)nc1-c1nc(/N=C2/NC(=O)CS2)sc1C	K-562 leukemia	TGI	> 50 µM
CCOC(=O)C1CC/C(=C(/C#N)C(=O)OC)N1 (stereo unspecified)	K-562 leukemia	TGI	> 100 µM
CP(C)C.[Ag][I]	K-562 leukemia	TGI	> 100 µM
CC1(C)C(=O)C2(C#N)CCC1C2 (stereo unspecified)	K-562 leukemia	TGI	> 100 µM

Look up TGI of `CC(C)(C)c1cc(C(C)(C)C)c2sc(=S)oc2c1O` and report it.
32.9 µM

Look up TGI of `COc1ccc(-c2cncn2-c2cc(OC)c(OC)c(OC)c2)cc1F` and report it.
> 100 µM

Look up TGI of CC(C)N(C[C@H]1O[C@@H](n2cnc3c(N)ncnc32)[C@H](O)[C@@H]1O)C1CC(CCc2nc3ccc(C(C)(C)C)cc3[nH]2)C1 (stereo partly specified) and report it.
> 75.3 µM

---

# System: RXF 393 renal
# test_summary: NCI tumour cell line growth inhibition, 48 h
endpoint: TGI (µM)
Entry rule: numbers only, all in µM.

These solved cases illustrate the format of a correct answer.
molecule	target_desc	endpoint	reported_value
CN(C)CCOc1nc2ccccc2c2c1-c1ccc(Cl)cc1C2=O	RXF 393 renal	TGI	2.55
CC(=O)OCC(=O)C1(O)C(C)CC2C3C=C(C)C4=Cc5c(cnn5-c5ccccc5)CC4(C)C3C(O)CC21C (centres undefined)	RXF 393 renal	TGI	2.39

Look up TGI of `COc1cnc2c(c1)C(=O)c1c-2n(CCCN2CCN(CCO)CC2)c(=O)c2cc([N+](=O)[O-])ccc12` and report it.
20.4

Look up TGI of O=C(/C=C/c1ccc(Cl)c(Cl)c1)C1CCC(Cl)CC1 (centres undefined) and report it.
37.9

---

# Tested on: NCI-H460 lung
# test_summary: NCI tumour cell line growth inhibition, 48 h
endpoint: TGI (µM)
Entry rule: numbers only, all in µM.

These solved cases illustrate the format of a correct answer.
molecule	TGI (µM)
O=C(CC1(O)C(=O)Nc2c(Cl)ccc(Cl)c21)c1ccc(C2CC2)cc1 (centres undefined)	9
CCOC(=O)C(Cc1ccc(OC)cc1)C(=O)OCC	15.1
COc1cc2c3c(c1O)C1(C=CC(=O)C=C1)CC3N(C)CC2 (centres undefined)	18.3
CC1OC(OC2C(O[C@@H]3C[C@@H]4CC[C@@H]5[C@H](CC[C@]6(C)[C@@H]7[C@H](C[C@@H]56)O[C@]5(CC[C@@H](C)CO5)[C@H]7C)[C@@]4(C)C[C@H]3O)OC(CO)C(OC3OC(CO)C(O)C(O)C3O)C2O)C(O)C(O)C1O (some centres undefined)	4.14

From here, focus on the item given below.
Look up TGI of `CN1CCN(c2ccc3nc4c(nc3c2C(F)(F)F)C(=O)c2ncccc2C4=O)CC1` and report it.
1.32
